B1: TPR t1 (parent)
chain: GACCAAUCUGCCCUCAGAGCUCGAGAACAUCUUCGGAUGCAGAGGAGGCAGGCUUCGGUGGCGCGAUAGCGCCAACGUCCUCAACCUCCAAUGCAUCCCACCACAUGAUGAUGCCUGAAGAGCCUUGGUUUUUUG

Variants of: B1
Assay: polymerase ribozyme fitness, log enrichment relative to wild type (log ratio); higher = more active; in vitro selection for triplet polymerase activity
Would you mind telling me the reported polymerase ribozyme fitness (log ratio) of each entry?
The reply should be a number, written without any unit.

Dear colleague, please send me the reported polymerase ribozyme fitness (log ratio) for GACCAUUCUGCCCUCAGAGCUCGAGAACAUCUUCGGAUGCAGAGGAGGCAGGCUUCGGUGGCGCGAUAGCGCCAACGUCCUCAACCUCCAAUGCAUCCCACCACAUGAUUAUGCCUGAAGAGCCUUGGUUUUUUG [A6U G110U] when you can.
-1.36

Dear colleague, please send me the reported polymerase ribozyme fitness (log ratio) for GACCAAUCUGCCCUCACAGCUCGAGAACAUCUUCGGAUGCGGAGGAGGCAGGCUUCGGUGGCGCGAUAGCGCCAACGUCCUCAACCUCCAUUGCAUCCCACCACAUGAUGAUGCCUGAAGAGCCUUGGUUUUUUG [G17C A41G A91U] when you can.
-4.31

Dear colleague, please send me the reported polymerase ribozyme fitness (log ratio) for GGCCAAUCUGCUCUCAGAGCUCGAGAACUUCUUCGGAUGCAGAGGAGGCAGGCUUCGGUGGCGCGAUACCGCCAGCGUCCUCAACCUCCAAUGAAUCCCACCACAUGAUGAUGCCUGAAGAGUCUUGGUUUUUUG [A2G C12U A29U G69C A75G C94A C123U] when you can.
-4.95

Dear colleague, please send me the reported polymerase ribozyme fitness (log ratio) for GACCAAUCUGCACUCAGAGCUCGAGAACAUCUUCGGAUGCAGAGGAGGCAGGUUUCGGUGGCGCGAUAGCGCCAACGACCGCAACCUCCAAUGCAUCCCACCACAUGAUGAUGCCUGAAGAGCCUUGGUUUUUUG [C12A C53U U78A U81G] when you can.
-2.32

Dear colleague, please send me the reported polymerase ribozyme fitness (log ratio) for GACAAAUCUGCCCUCAGAGCUCGAGAACAUCUUCGGAUGCAGAGGAGGCAGGCUUCGGUGACGCGAUAGCGCCAACGUCCUCAACCUCCAAUGCAUCCCACCACAUGAUGAUGCCUGAAGAGCCUUAGUUUUUUG [C4A G61A G127A] when you can.
-2.92

Dear colleague, please send me the reported polymerase ribozyme fitness (log ratio) for GACCAAUCUGCCCUCAGAGCUCGAGAACAUCUUCGGAUGCAGAGGAGUCAGGCUUCGGUGGCUCGAUAGCGCCAACGUCCUCAACUUCCAAUGCAUCCCACCACAUGAUGAUGCCUGAAGAGCCUUGGUUUUUUG [G48U G63U C86U] when you can.
-1.38

Dear colleague, please send me the reported polymerase ribozyme fitness (log ratio) for GACCAAUCUGCCCUCAGAGCUCGAGAACAUCUUCGGAUGCAGAGGAGGCAGGCUUCGGUGGCGCGAUAGCGCCAACGUCCACAACCUCCAAUGCAUCCCACCACAUGAUAAUGCCUGAAGAGCCUUGGUUUUUUG [U81A G110A] when you can.
-2.37

Dear colleague, please send me the reported polymerase ribozyme fitness (log ratio) for GACCAAUCUGCCCUCAGAGCUCGAGAACAUCUUCGGAUGCAGAGGAGGCAGGCUUCGGUGGCGCGAUAGGGCCAACGUCCUCAUCCUCCAAUGCAUCCCACCACAUGAUGAUGCCUGAAGAGCCUUGGUUUUUUG [C70G A84U] when you can.
-3.25

Dear colleague, please send me the reported polymerase ribozyme fitness (log ratio) for GACCAAUCUCCCCUCAGAGCUCGAGAACAUCUUCGGAUGCAGAGGAGGCAGGCUUCGGUGGCGCGAUAGCUCCAACGUCCUCAACCUCCAAUGCAUCCCACCACAUGAUGAUGACUGCAGAGCCUUGGUUUUUUG [G10C G71U C114A A118C] when you can.
-6.14

Dear colleague, please send me the reported polymerase ribozyme fitness (log ratio) for GACCAAUCUGCCCUCAGAGCUCGAGAACAUCUUCGGAUGCAGAGGAGGCAGGCUUCGGUGGCGCGAUAGCGCCAACGUCCUCAACCUCCAAUGCAUCCCACCACAUAAUGAUGCCUGAAGAGCCGUGGUUUUUUG [G107A U125G] when you can.
-5.84

Dear colleague, please send me the reported polymerase ribozyme fitness (log ratio) for GACCAAUCUGCCCUUAGAGCUCGAGAACAUCUUCGGAUGCAGAGGAGGCAGGCUUCGGUGGCGCGAUAGCGCCAACGUCCUCGACCCCCAAUGCAUCCCACCACAUGAUGAUGCCUGAAGAGCCUUGGUUUUUUG [C15U A83G U87C] when you can.
-2.34

Dear colleague, please send me the reported polymerase ribozyme fitness (log ratio) for GACCAAUCUGGCCUCAGAGCUCGAGAACAUCUUCGGAUGCAGAGGAGGCAGGCUUCGGUGGCGCGAUAGUGCCAACGUACUCAACCUCCAAUGCAUCCCACCACAUGAUGAUGCCUGAAGAGCCUUGGUUUUUUG [C11G C70U C79A] when you can.
-1.87

Dear colleague, please send me the reported polymerase ribozyme fitness (log ratio) for GAGCAAUCUGCCCUCAGAGCUCGAGAACAUCUUCGGAUGCAGAGGAGGCAGGCUUCGGUGGCGCGAUAGCGCCAACGUCCUCAACCUCCAAUGCACCCCACCACAUGAUGAUUCCUGAAGAGCCUUGGUUUUUUG [C3G U96C G113U] when you can.
-6.42

Dear colleague, please send me the reported polymerase ribozyme fitness (log ratio) for GACCAAUAUGCUCUCAGAGCUCGAGAACAUCUUCGGAUGCAGAGGAGGCAGGCUUCGGUGGCGCGAUAGCGCCAACGUCCUCAACCUCCUAUGCAUCCCACCACAUGAUGAUGCCUCAAGAGCCUUGGUUUUUUG [C8A C12U A90U G117C] when you can.
-0.863

Dear colleague, please send me the reported polymerase ribozyme fitness (log ratio) for GACCAAUCUGCCCUCAGAGCUCGAGAACAUCUUCGGAUGCAGAGGAGGCAGGCUUCGGUGGCGCGAUAGCGCCAACGUCCUCAACCUUCAAUGCAUCCCACCACAUGAUGAUGCCUGAAGAACCUUGGUUUUUUG [C88U G122A] when you can.
-1.42

Dear colleague, please send me the reported polymerase ribozyme fitness (log ratio) for GACCAAUCUGCCCUCAGAGCUCGAGAACAUCUUCGGAUGCAGAGGAGGCAGGCUUUGGUGGCGCGAUAGCGCCAACGUCCUCAACCUCCAAUGCAUCCCACCACAAGAUGAUGCCUGAAAAGCCUUGGUUUUUUG [C56U U106A G120A] when you can.
0.351

Dear colleague, please send me the reported polymerase ribozyme fitness (log ratio) for GACCAAUCUGCCCUCAGAGCUCGAGAAGAUCUUCGGAUGCAGAGGAGGCAGGCUUCGGUGACGCGAUAGCGCCAACGUCCUCAACCUCCAAUGCAUCCCACCACAUGAUGAUGCCUGAAGAGCCUUGGUUUUUUG [C28G G61A] when you can.
-2.51

Dear colleague, please send me the reported polymerase ribozyme fitness (log ratio) for GACCAAUCUGCCCUCAGAACUCGAGAACAUCUUCGGAUGCAGAGGAGGCAGGCUUCGGUGGUGCGAUAGCGCCAACGUCCUCAACCUCCAAUUCAUCCCACCACAUGAUGAUGCCUGAAGAGCCUUGGUUUUUUG [G19A C62U G93U] when you can.
-4.23

Dear colleague, please send me the reported polymerase ribozyme fitness (log ratio) for GUCCAAUCUGCCCUCAGAGCUCGAGAACAUCUUCGGAUGCAGAGGAGGCACGCUUCGGUGGCGCGAUAACGCCAACGUCCUCAACCUCCAAUGCAUCCCACCACAUGAUGAUGCCUGAAGGGCCUUGGUUUCUUG [A2U G51C G69A A121G U132C] when you can.
-6.81

Dear colleague, please send me the reported polymerase ribozyme fitness (log ratio) for GACCAAUCUGGCCUCAGAGCUCGAGAAGAUCUUCGGAUGCAGAGGAGGCAGGCUUCGUUGGCGCGAUAGCGCCAACGUCCUCAACCUCCAAUGCAUCCCACCACAUGAUGAUGCCUGAAGAGCCUUGGUUUUUUG [C11G C28G G58U] when you can.
-2.76

Dear colleague, please send me the reported polymerase ribozyme fitness (log ratio) for GACCAAUCCGCCCUCAGAGCUCUAGAACAUUUUCGGAUGCGGAGGAGGCAGACUUCGGUGGCGCGAUAGCGCCAACGUCCUGCACCUCCAAUGCAUCCCACCACAUGAUGAUGCCUGAAGCGCCUUGGUUUUUUG [U9C G23U C31U A41G G52A C82G A83C A121C] when you can.
-6.19

Dear colleague, please send me the reported polymerase ribozyme fitness (log ratio) for GACCAAUCUGCCCUCAGAGCUCGAGAACAUCUUCGGAUGCAGAGGAGGCAGGCUUCGGUGGCGCGAUAGCGCCAACGUCCUCAACCUCCAAUGCAUCCCACCACAUGAAGAUGCCUGAAGAGCCUUGGUUUUUUU [U109A G135U] when you can.
-4.82

Dear colleague, please send me the reported polymerase ribozyme fitness (log ratio) for GACCAAUCUGCCCUCAGAGCUCGAGAACAUCUUCGGAUACAGAGGAGGCAGGCUUCGGUGGCGCGAUAGCGCCAACGUCCUCAACCUCCGAUGCAUCCCACCACAUGAUGAUGCCUGAAGAGCCUUGGUUUUUUG [G39A A90G] when you can.
0.17

Dear colleague, please send me the reported polymerase ribozyme fitness (log ratio) for GACCAAUCUGCCCUCAGGGCUCGAGAACAUCUUCGGAUGCAGAGGAGGCAGGCUUCGGUGGCGCGAUAGCGCCAACGUCCUCAACCUCCAAUGCAUCCCACCACAUGAUGAUGCCUGAAGAGCCUUGGUUUAUUG [A18G U132A] when you can.
-3.07

Dear colleague, please send me the reported polymerase ribozyme fitness (log ratio) for GACCAAACUGCCCUCAGAGCUCGAGAACAUCUUCGGAUGCAGAGGAGGCAGGUUUCGGGUGCGCGAUAGCGGCAACGUCCUCAACCUCCAAUGCAUCCCACCACAUGAUGAUGCCUGAAGAGCCUUGGUUUUUUG [U7A C53U U59G G60U C72G] when you can.
-0.651

Dear colleague, please send me the reported polymerase ribozyme fitness (log ratio) for GACCAAUCCGCCCUCAGAGCUCGAGAACAUCUUCGGAUGCAGAGGAGGCAGGCUUCGGUAGCGCGAUAGCGCCAACGUCCUCAACCUCCAAUGCAUCCCACCACAUGAUGAUGCCUGAAGAGCCUUGGUUUUUUG [U9C G60A] when you can.
0.405

Dear colleague, please send me the reported polymerase ribozyme fitness (log ratio) for GACCAAUCUGCCCUCAGAGCUCGAGAACAUCUUCGGAUGCAGCGGAGGCAGGCUUCGGUGGCGCGAUAGCGCCAACGUCCUCAACCUCCAAUGCAUCCCACCACAUGAUGAUGCCUGAAGAGCAGUGGUUUUUUG [A43C C124A U125G] when you can.
-0.534

Dear colleague, please send me the reported polymerase ribozyme fitness (log ratio) for GACCAAUCUGCCCUCAGAGCUCGAGAACAUCUUCGGAUGCAGAGGAGGCAGGCUUCGGUGGCGCGAUGGCGCCAACGUCCUCAACCUCCUAUGCAUCCCACCACAUGAUGAUGCCUGAAGAGCCUUGGUUUUUUG [A68G A90U] when you can.
-4.47

Dear colleague, please send me the reported polymerase ribozyme fitness (log ratio) for GACCAAUCUGCCCUCAGAGCUCGAGAACAUCUUCGGAUGCAGAGGAGGCAGGCCUCGGUGGCGCGAUAGCGUCAACGUCCUUCACCUCCAAUGCAUCCCACCACAUGAUGAUGCGUAAAGAGCCUUGGCUUUUUG [U54C C72U C82U A83C C115G G117A U129C] when you can.
-4.96

Dear colleague, please send me the reported polymerase ribozyme fitness (log ratio) for GACCAAUCUGCCCUCAGAGCUCGAGAACAUCUUCGGAUGCAGAGGAGGCAGGCUUCGGUGGCGCGAUAGCGCCAACGUCCUCAACCUCCAAUCCAUCCCACCACAUGAUGAUGCCUGAAGAGCCUUGGUUAUUUG [G93C U131A] when you can.
-1.05

Dear colleague, please send me the reported polymerase ribozyme fitness (log ratio) for GACCAAUCAGCCCUCAGAGCUCGAGAACAUCUUCGGAUGCAGAGGAGGCAGGCUUAGGUGGCGCGAUAGCGCCAACUUCCUCAACCUCCAAUGCAUCCCACCACAUGAUGAUGCCUUAAGAGCCUUGGUUUUUUG [U9A C56A G77U G117U] when you can.
0.546

Dear colleague, please send me the reported polymerase ribozyme fitness (log ratio) for GACCAAUCUGCCCUCCGAGCUCGAGAACAUCUUCGGAUGCUGAGGAGGCAGCCUUCGGUGGCGGGAUAGCGCCAACGUCCUGAACCUCCAAUGCAUCCCACCACAUGAUCAUGCCUGAAGAGCCUUGGUUUUUUG [A16C A41U G52C C64G C82G G110C] when you can.
-6.92

Dear colleague, please send me the reported polymerase ribozyme fitness (log ratio) for GACCAAUCUGCCCUCAGAGCUCGAGAACAUCUUCGGAUGCAGAGGAGGCAGGCUUCGGUGGCGCGAUAGCGCCAUCGUCCUCAAACUCCAACGCAUCCCACCACAUGAUGAUCCCUGAAGAGCCUUGGUUUUUUG [A75U C85A U92C G113C] when you can.
-3.69

Dear colleague, please send me the reported polymerase ribozyme fitness (log ratio) for GACCAAUCUGCCCUCAGAGCUCGAGAACAUCUUCGGAUGCCGAGGAGGCAGGCUUCGGUGGCGCGAUAUCGCCAACGUCCUCAACCUCCAAUGCAUCCCACCACAUGAUGACGCCUGAAGAGCCUUGGUUUUUUG [A41C G69U U112C] when you can.
0.865

Dear colleague, please send me the reported polymerase ribozyme fitness (log ratio) for GACCAAUCUGCCCUCAGAGCUCGAGAACAUCUUCGGAUGCAGAGGAGGCAGGCUUCGGUGGCACGAUAGCGCCAGCGUCCUCAACCUCCAAUGCAUCCCACCACAUGAUGAUGCCUGAAGAACCUUUGUUUUUUG [G63A A75G G122A G127U] when you can.
-3.17

Dear colleague, please send me the reported polymerase ribozyme fitness (log ratio) for GACCAAUCUGCCCUCAGUGCUCGAGAACAUCUUCGGAUGCAGAGGAGGCAGGCUUCGGUGGCGCGAUAGCGCCAACGUCCUCAACGUCCAAUGCAUCCCACCACAUGAUGAUUCCUGAAGAGCCUUGGUUUUUUG [A18U C86G G113U] when you can.
-4.47
